Ref: PubChem BioAssay (NCATS)

- TEST DETAILS: Primary qHTS for small molecule stabilizers of the endoplasmic reticulum resident proteome: Secreted ER Calcium Modulated Protein (SERCaMP) assay (AID 1508630)
- PARTICULARS: SH-SY5Y GLuc-SERCaMP (Gaussia luciferase released on ER calcium loss) secretion, thapsigargin, luminescence; series mostly up to 38.4 µM
Inconclusive results are not listed. The source made the active and inactive calls. Calls come from the whole dose curve; as a rule, active = well fitted inhibition curve with a large enough effect; inconclusive = small, poorly fitted or top-dose-only effect; inactive = no such curve, though single readings can be large or run the other way.
Lab note: assign the record to one of true for active, false for inactive

Look over these answered cases.
CC1(C)C[C@@H]1C(=O)N/C(=C\CCCCSC[C@H](N)C(=O)O)C(=O)O; false
O=C(Nc1cccc(C(=O)Nc2ccc(S(=O)(=O)O)c3cc(S(=O)(=O)O)cc(S(=O)(=O)O)c23)c1)Nc1cccc(C(=O)Nc2ccc(S(=O)(=O)O)c3cc(S(=O)(=O)O)cc(S(=O)(=O)O)c23)c1; false
C[N+]1(C)[C@@H]2CC(OC(=O)[C@H](CO)c3ccccc3)C[C@H]1[C@@H]1O[C@@H]12 (some centres undefined); false
CN1CCC[C@H]1c1cccnc1; false
Nc1ncnc2c1ncn2[C@@H]1O[C@H](COP(=O)(O)OP(=O)(O)OP(=O)(O)OP(=O)(O)OC[C@@H]2O[C@H](n3cnc4c(N)ncnc43)[C@@H](O)[C@H]2O)[C@@H](O)[C@H]1O; false

Problem: State the result this test recorded for O=C1C(SCCO)=C(SCCO)C(=O)c2ccccc21 .
Solution: true

Problem: Repeat for the following compound: Clc1ccccc1-c1nc(-c2ccncc2)no1
Solution: false

Problem: Repeat for the following compound: Fc1ccc(C(OCCCc2cnc[nH]2)c2ccc(F)cc2)cc1
Solution: false

Problem: Repeat for the following compound: CCCCCCCCCCCCCCCCCC(=O)NCC(COP(=O)([O-])OCC[N+](C)(C)C)OCC (centres undefined)
Solution: false

Problem: Repeat for the following compound: CCCCCCCC/C=C\CCCCCCCC(=O)NCCO
Solution: true

----------
- TARGET: Luciferin 4-monooxygenase (Photinus pyralis) (UniProt P08659)
- Sequence (P08659 whole entry, looked up): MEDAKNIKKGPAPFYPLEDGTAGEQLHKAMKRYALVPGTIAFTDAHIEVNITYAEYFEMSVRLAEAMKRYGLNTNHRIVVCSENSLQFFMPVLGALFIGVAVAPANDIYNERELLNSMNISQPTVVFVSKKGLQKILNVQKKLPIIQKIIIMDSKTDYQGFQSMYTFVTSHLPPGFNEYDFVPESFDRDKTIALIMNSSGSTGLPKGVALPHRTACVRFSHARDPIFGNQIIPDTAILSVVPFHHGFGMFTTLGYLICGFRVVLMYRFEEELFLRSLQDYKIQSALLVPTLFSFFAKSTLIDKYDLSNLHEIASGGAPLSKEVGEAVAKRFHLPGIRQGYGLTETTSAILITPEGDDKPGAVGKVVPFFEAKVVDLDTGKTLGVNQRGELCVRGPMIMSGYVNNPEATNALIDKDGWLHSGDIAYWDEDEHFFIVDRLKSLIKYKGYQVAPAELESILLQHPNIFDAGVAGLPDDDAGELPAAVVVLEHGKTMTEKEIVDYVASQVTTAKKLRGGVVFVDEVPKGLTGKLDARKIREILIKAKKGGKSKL
- TEST DETAILS: Biochemical firefly luciferase enzyme assay for NPC (AID 624030);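 note: purified P. pyralis luciferase at 10 nM with luciferin and ATP substrate; nearly all actives have a fitted effect of over 70% in size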
- PARTICULARS: purified P. pyralis luciferase, luminescence, 5 min; series mostly up to 58.6 µM
Records with an inconclusive call do not appear. Active and inactive are the calls of the source. The call rests on the fitted dose curve; in most records, active means well fitted inhibition curve with a large enough effect; inconclusive means small, poorly fitted or top-dose-only effect; inactive means flat fitted curve, though single readings scatter.
Lab note: assign the record to one of active, inactive

CCC1C(=O)OCC1Cc1cncn1C (stereo not given); inactive
CC(C)Cc1ccc([C@H](C)C(=O)O)cc1; inactive

Problem: State the result this test recorded for Cc1c(N)c(=O)n(-c2ccccc2)n1C .
Solution: inactive

Problem: Repeat for the following compound: Cc1ccccc1CNc1ncnc2c1ncn2C1OC(CO)C(O)C1O (stereo not given)
Solution: inactive

Problem: Repeat for the following compound: O=C(O)c1cc(O)c(O)c(O)c1
Solution: inactive

----------
- TARGET: DNA repair nuclease/redox regulator APEX1 (Homo sapiens)
- TEST DETAILS: qHTS Validation Assay for Inhibitors of the Human Apurinic/apyrimidinic Endonuclease 1 (APE1) (AID 1705)
- PARTICULARS: purified APE1 endonuclease activity, fluorescence, titration; series mostly up to 57.1 µM
Records with an inconclusive call do not appear. Calls of active or inactive are those of the source. Calls come from the whole dose curve; as a rule, active = well fitted inhibition curve with a large enough effect; inconclusive = small, poorly fitted or top-dose-only effect; inactive = flat fitted curve, though single readings scatter.
Lab note: assign the record to one of active, inactive

O=C(Nc1cccc(C(=O)Nc2ccc(S(=O)(=O)O)c3cc(S(=O)(=O)O)cc(S(=O)(=O)O)c23)c1)Nc1cccc(C(=O)Nc2ccc(S(=O)(=O)O)c3cc(S(=O)(=O)O)cc(S(=O)(=O)O)c23)c1; active
CC(=O)SCC[N+](C)(C)C; inactive

Next:
Problem: State the result this test recorded for O=C(/C=C/c1ccc(O)c(O)c1)OCCc1ccccc1 .
Solution: inactive
